Target: T1, human LAG3 expressed on cells (human, UniProt P18627 23-525)
T1 sequence (looked up): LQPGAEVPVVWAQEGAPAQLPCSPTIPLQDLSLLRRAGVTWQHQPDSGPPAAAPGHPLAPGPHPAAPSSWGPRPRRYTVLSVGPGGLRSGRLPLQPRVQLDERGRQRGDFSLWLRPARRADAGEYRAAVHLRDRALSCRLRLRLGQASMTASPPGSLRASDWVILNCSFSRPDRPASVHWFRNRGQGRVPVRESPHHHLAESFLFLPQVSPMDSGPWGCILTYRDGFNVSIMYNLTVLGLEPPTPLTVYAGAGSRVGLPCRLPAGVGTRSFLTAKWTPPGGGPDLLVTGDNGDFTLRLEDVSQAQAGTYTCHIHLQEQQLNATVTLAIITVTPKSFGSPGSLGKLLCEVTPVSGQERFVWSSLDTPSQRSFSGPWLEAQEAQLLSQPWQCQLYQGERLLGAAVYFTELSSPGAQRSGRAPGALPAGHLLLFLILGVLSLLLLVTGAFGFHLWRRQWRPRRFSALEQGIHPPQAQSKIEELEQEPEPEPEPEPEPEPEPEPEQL
Experiment: cell-based or functional assay
Record form. Attribute: IL-2, % of BMS, at 3.703703704 ug/mL. Fill in for each entry.
One number for each entry, in %.

• sdAb No. 17 (VHH, Fc of the tested form not described; also called sdAb 17; not shown: Fc part implied by anti-human Fc capture and anti-human IgG1 Fc detection) VHH: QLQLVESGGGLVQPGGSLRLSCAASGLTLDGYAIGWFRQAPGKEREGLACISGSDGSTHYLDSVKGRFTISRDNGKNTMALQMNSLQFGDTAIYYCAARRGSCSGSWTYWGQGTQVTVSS = 31.4

Let's switch to this binder now.
According to the records, this binder sdAb No. 24 (VHH, Fc of the tested form not described; also called sdAb 24; not shown: Fc part implied by anti-human Fc capture) VHH: QLQLVESGGGLVQPGGSLRLSCAASGFTLNEHAIGWFRQAPGKEREGVSCISSSDGSTYYHDSVKGRFTMSRDDAKNTVYLQMNSLKAEDTAIYYCAAALGRDCQGGQWKTSSWGQGTQVTVSS displays IL-2, % of BMS, at 3.703703704 ug/mL of 34.9

Sourced from patent US20230303690A1
